Biological target: calmodulin (Sigma)
Assay: fluorescence polarization, calmodulin
Square brackets hold non-standard residues; d marks the D form. Ends that are not written are not given here. acetamidofluorescein = acetamidofluorescein label attached to the side chain of a C-terminal cysteine residue (made by modifying the cysteine with 5-iodoacetamidofluorescein); pS = N[C@@H](COP(=O)(O)O)C(=O)O
Quantity name: Kd (µM)
Respond with the bare value in µM.

| Binder | Kd (µM) |
| --- | --- |
| GPSQPTYPGDDAPVRRL[pS]FFYILLDLYLDAPGVC(acetamidofluorescein)-NH2 (designed binder, also called PPKID4 (phosphorylated); wild type PPKID4^P) [PPKID4^P] | 52 |

With those in mind, consider the next binder.
Any idea what its Kd is? The binder is RRL[pS]FFYILLDLYLDAPGVC(acetamidofluorescein)-NH2 [peptide C^P (chimeric α-helical portion of the PPKID peptides, residues 15-33, phosphorylated)]
178
